- System: JAK2-dependent nuclear translocation of STAT5-GFP in U-2 OS osteosarcoma cells
- experimentNotes: STAT5 nuclear translocation assay (Cellomics), rhEpo stimulated U-2 OS STAT5-GFP cells
- Format: cell-based
- appliedConditions: Homo sapiens, U2OS; STAT5 translocation pathway
attributeMeasured: pIC50
Scale: negative log10 of molar concentration, which is what pIC50 denotes.

# example entries with known answers
INSERT INTO assay_data (compound, systemtested, recordedresult) VALUES
  ('Fc1cc(-n2ccc3cnc(Nc4ccc([C@@H]5CNCCN5)cc4)nc32)cc(F)c1CN1CCOCC1', 'JAK2-dependent nuclear translocation of STAT5-GFP in U-2 OS osteosarcoma cells', 8.28),
  ('O=C1CNCCN1Cc1ccc(Nc2ncc3ccn(-c4cc(F)c(CN5CCOCC5)c(F)c4)c3n2)cc1', 'JAK2-dependent nuclear translocation of STAT5-GFP in U-2 OS osteosarcoma cells', 7.08);

Query string: Give its pIC50 value. Item: Cc1ccc(Nc2ncc3ccn(-c4cc(F)c(CN5CCOCC5)c(F)c4)c3n2)cc1CN1CCC(N(C)C)C1 (racemic)
Result string: 7.50
